Experiment: yeast display, Sf9 membrane polyspecificity reagent, FACS + sequencing; frameworks hold sequencing errors
endpoint label: polyreactivity (PSR sort gate)

{"columns": ["sequence input", "result"],
 "data": [
  ["QVQLVESGGGLVQAGGSLRLSCAASGSTFVFYTMGWYRPAPGKERELVAGISRNGGSTYYADSVKGRFTISRDNAKNTVYLQMNSLKTEDSAVYYCAALTWSRAYYSRKFYYWGQGTQVTVSS", "high polyreactivity"],
  ["QVQLEESGGGLVQAGGSLRLSCAASGSIFVVYAMGWSRQAPGKERELVASIRTGGSTNYADSEKGRFTISRDNAKNNVYLQMNSLKPEDTAVYYCAAASWNSNRHYYVARYYYWGQGTQVTVSS", "high polyreactivity"]
]}

----------
Assay: yeast display, Sf9 membrane polyspecificity reagent, FACS + sequencing; frameworks hold sequencing errors
endpoint label: polyreactivity (PSR sort gate)

{"columns": ["sequence input", "endpoint label", "result"],
 "data": [
  ["QVQLVESGGGLVQAGGSHRVRCAASGRTFSQYDLGWYRQEPGKERELVAAITRSGSRTYYADSVKGRFTISRDNAKNTVYLQMNSLKPEDTAVYYCNARSISRKKGYPPQRRDGYWGQGTQVTVSS", "polyreactivity (PSR sort gate)", "high polyreactivity"],
  ["QVQLVESGGGLVQAGGSLRLSCAASGSIFSWSAMGWYRQAPGKVRELVAGITWTGGSTYYADSVKGRFTISRDNAKNTVYLQRNSLKPEDTAVYYCNARRATYRKYTPVPFDRYDYWGQGTQVTVSS", "polyreactivity (PSR sort gate)", "high polyreactivity"],
  ["QVQLVESGGGLVQAGGSLRLSCAASGSIFRGYTMGWYRQAPGKERELVAAISTRGGSTYYADSVKGRFTISRDNAKNTVYLQMNSLKPEDTAVYYCNARSRGRASGYDYWGQGTQVTVSS", "polyreactivity (PSR sort gate)", "high polyreactivity"],
  ["QVQLVESGGGLVQAGGRLRLSCAASGSIFRFYAMGWYRQAPGKERELVASISSGGSTYYADSVKGRFTISRDNAKNTVYLKLNSLKAEDTAVYYCAHGFAQYGVDLDPGDYDYWGQGTQVTVSS", "polyreactivity (PSR sort gate)", "low polyreactivity"],
  ["QVQLVESGGGLVQAGGSLRLSCAASGRTITRNAMGWYRQAPGKERELVAAITTTGGSTYYADYVKGRFTISRDNAKNTVYLQMNSLKPEDNAVYYCNADWVGPFRRATNITTYFGYDYWGQGTQVTVSS", "polyreactivity (PSR sort gate)", "low polyreactivity"]
]}

----------
Assay: yeast display, Sf9 membrane polyspecificity reagent, FACS + sequencing; frameworks hold sequencing errors

{"columns": ["sequence input", "polyreactivity (PSR sort gate)"],
 "data": [
  ["QVQLVESGGGLVQAGGSLRLSCAASVIICPDNAMGWDRPAPGKERELVAAITQSRGSTFYADSVKGRFTISRDNAKNTVYLQMKSLKPEDTAVYYCNAYRKFRYWGQGTQVTVSS", "high polyreactivity"],
  ["QVQLEESGGGLVQAGGSLRLSCAASGITFRAYAMGWYRQAPGKERELVAAITGRGGRTYYADSVKGRFTISRDNAKNTVYLQMNSLKPEDPAVYYCNAYLWRVNQTYDYWGQGTQVTVSS", "high polyreactivity"],
  ["QVQLVESGGGLVQAGGSLRLSCAASGRTFPVYAMGWYRQAPGQERELVAAINTSGTSTYYADSVKGRFTISRDNAKNTVYLQMNSLKPEDTAVYYCATRYRYTYYWGQGTQVTVSS", "high polyreactivity"],
  ["QVQLVESGGGLVQAGGSLRLSCAASGSIFLGNAMGWYRQAPGKERELVAAISSITGRTYYAESVKGRFTISRDNAKNTVYLQMNSLKPEDTAVYYCNKVKRSFIVKTDDYWGQGTQVTVSS", "high polyreactivity"],
  ["QVQLVESGGGIVQAGGSLRLSCAASGSTFRLYAMGWYRQAPGKERELVAAITWSVGSTYYADSVKGRFTISRDNAKNTVYLQMNSLKPEDTAVYYCAADRIGYYLRVSYRGKYDHWGQGTQVTVSS", "low polyreactivity"],
  ["QEKHVESGGGLVQAGGSLLLSCAASGLTFYHNAMGWYRQAPGKERELVAAISSGGTTNYADSVKGRFTISRDNAKNTVYLQMNSLTPEDTAVYYCAARGWGPTRAYDYWGQGTQVTLSS", "high polyreactivity"],
  ["QVQSVESGGGLVQAGGSLRLSCAASGRTFSIYGMGWYRQAPGKERELVAAISWRSGSTYYADSVKGRFTISRDNAKNTVYLKMNSLKPEDTAVYYCAKRYILGYKPYSYWGQGTQVTVSS", "high polyreactivity"],
  ["QVQLVESGGGLVQAGGSLRLSCAASGRIFYAYAMGWYRQEPGKERELVASISGSGGSTYYADSVKGRFTISRDNAKNTVYLQMNRLKPEDTAVYYCAKRYPFYSSGLSTYNYWGQGTQVTVSS", "high polyreactivity"],
  ["QVQLVESGGGLVQAGGSLRLSCAASGRIFVPYVMGWYRQAPGKERELVASISDSDTSTYYADSVKGRFTISRDNAKNTVYIQMNSLKPEDSAVYYCNVDYWGQGTQVTVSS", "low polyreactivity"],
  ["QVQLVESGGGLLQAGGSLRLSCAASGRIFIANAMGWNRQAPRKERDLVAAITSDGGTNYADSVKGRFTISRDNAKITVYLQLISLKPEDTAVYYCAATYQIGYYYVWEYDYWGQGTQLTVSS", "low polyreactivity"],
  ["QVQLVESGGGLVQAGGSLRLSCAASGSTFKPNAMGWYRQAPGKERELVAAISGSGGSTYYADSVKGRFTISRDNAKNTVYLQMNSLKPEDTAVYYCAAYVYTIFSWYDYWGQGTQVTVSS", "high polyreactivity"]
]}

Sourced from the nanobody polyreactivity screen of Harvey et al. (2022)
